test: Evaluation 3: 20-μm pattern line width of black photosensitive composition; conditions: black composition (carbon black, cardo resin), initiator 0.4 mmol; 40 mJ/cm^2
Overview of reported 20-μm pattern line width across a group of compounds:
Measured Attribute: 20-μm pattern line width

INSERT INTO results (compound, measured_attribute, measured_result) VALUES
  ('CCCC1(CCC)c2cc(C(=O)c3ccccc3C)ccc2-c2ccc(/C(C)=N/OC(C)=O)cc21 [Compound 4]', '20-μm pattern line width', 21.3),
  ('CCCCCCC1(CCCCCC)c2cc(C(=O)c3ccccc3)ccc2-c2ccc(C(C)=NOC(C)=O)cc21 [Compound 8]', '20-μm pattern line width', 21.7),
  ('CCCC1(CCC)c2cc(C(=O)c3ccc([N+](=O)[O-])cc3)ccc2-c2ccc(C(=NOC(C)=O)C(C)C)cc21 (mixture of isomers) [Compound D-8]', '20-μm pattern line width', 20.0),
  ('CCCC1(CCC)c2cc(C(=NOC(C)=O)c3ccccc3)ccc2-c2ccc([N+](=O)[O-])cc21 [Compound D-1]', '20-μm pattern line width', 21.9);
